molecular target: HCV polymerase (NS5B) type 1b (Hepatitis C virus genotype 1b); construct: a region encoding NS5B (J Virol 1991 March, 65(3), 1105-13, 544 amino acids after deletion of 47 amino acids on the C-terminal); 6xHis (C); made in house; host or cells: Escherichia coli; test: Assay of enzyme (HCV polymerase) inhibitory activity, type 1b enzyme; format: biochemical, HCV BK strain (type 1b); details: HCV polymerase inhibitory activity (IC50), 1b, type 1b enzyme 0.5 μg/ml, 25° C., 60 min
pIC50: −log10 of the molar value.
measure: pIC50

Find the measured pIC50 of "CC(C)c1ccc(CNC(=O)[C@H]2CN(c3cc(C(=O)O)n(C)n3)CCN2S(=O)(=O)c2ccc(C(F)(F)F)cc2)cc1" and report it.
> 7.00

====

Molecular target: HCV polymerase (NS5B) type 1b (Hepatitis C virus genotype 1b, UniProt P26663)
Construct: a region encoding NS5B (J Virol 1991 March, 65(3), 1105-13, 544 amino acids after deletion of 47 amino acids on the C-terminal); 6xHis (C); made in house; host or cells: Escherichia coli
Assay: Assay of enzyme (HCV polymerase) inhibitory activity, type 1b enzyme
Assay type: biochemical, HCV BK strain (type 1b)
Conditions: HCV polymerase inhibitory activity (IC50), 1b, type 1b enzyme 0.5 μg/ml, 25° C., 60 min
Experimental: The evaluation of the HCV polymerase inhibitory activity of the compound of the present invention is explained in the following. This polymerase is an enzyme coded for by the non-structural protein region called NS5B on the genome RNA of HCV. i) Preparation of Enzyme (HCV Polymerase) […] The HCV polymerase inhibitory activity (IC50) of the compound of the present invention was calculated from the values of radioactivity of the enzyme reaction with and without the test substance. […]
pIC50: −log10 of the molar value.
measure: pIC50

CCCc1ccc(CNC(=O)[C@H]2CN(c3nc(C)c(C(=O)NS(C)(=O)=O)s3)CCN2S(=O)(=O)c2ccc(OC(F)(F)F)cc2)cc1	> 7.00
CC(=O)N1CCN(S(=O)(=O)c2ccc(-c3ccccc3)cc2)[C@@H](C(=O)NCc2ccc(C(C)C)cc2)C1	6.00 to 7.00

Find the measured pIC50 of "CCCc1ccc(S(=O)(=O)N2CCN(c3ncc(C(=O)O)s3)C[C@@H]2C(=O)NCc2ccc(C(C)C)cc2)cc1" and report it.
> 7.00

Find the measured pIC50 of "CCC(F)(F)c1ccc(CNC(=O)[C@H]2CN(C(=O)Cc3nnn(C)n3)CCN2S(=O)(=O)c2ccc(OC(F)(F)F)cc2)cc1" and report it.
> 7.00

Find the measured pIC50 of "CC(C)c1ccc(CNC(=O)[C@H]2CN(C(=O)Cc3ccncc3)CCN2S(=O)(=O)c2ccc(C(F)(F)F)cc2)cc1" and report it.
6.00 to 7.00

Find the measured pIC50 of "CC(C)(C)c1ccc(CNC(=O)[C@H]2CN(c3cnc(C(=O)O)cn3)CCN2S(=O)(=O)c2ccc(OC(F)(F)F)cc2)cc1" and report it.
> 7.00

====

// reported IC50 per item
molecular target: HCV polymerase (NS5B) type 1a (Hepatitis C virus genotype 1a); construct: made in house; host or cells: Escherichia coli (by the 'similar method' of the 1b enzyme); test: Assay of enzyme (HCV polymerase) inhibitory activity, type 1a enzyme; assay type: biochemical, HCV type 1a (cloned from the blood of patients); details: HCV polymerase inhibitory activity IC50, 1a, type 1a enzyme

// worked examples, IC50 included
O=C(NCc1ccc(OC(F)(F)F)cc1)[C@H]1CN(c2ccc3nccnc3n2)CCN1S(=O)(=O)c1ccc(OC(F)(F)F)cc1	< 100 nM
CCC(C)(C)c1ccc(CNC(=O)[C@H]2CN(c3nc4cn[nH]c(=O)c4s3)CCN2S(=O)(=O)c2ccc(OC(F)(F)F)cc2)cc1	< 100 nM
Cc1nc(C(N)=O)c2sc(N3CCN(S(=O)(=O)c4ccc(OC(F)(F)F)cc4)[C@@H](C(=O)NCc4ccc(OC(F)(F)F)cc4)C3)nc2n1	100 to 1000 nM
O=C(NCc1ccc(OC(F)(F)F)cc1)[C@H]1CN(c2nc3nc(Cl)ncc3s2)CCN1S(=O)(=O)c1ccc(C(F)(F)F)s1	< 100 nM
CCC(F)(F)c1ccc(CNC(=O)[C@H]2CN(C(=O)Cn3nnnc3N)CCN2S(=O)(=O)c2ccc(OC(F)(F)F)cc2)cc1	100 to 1000 nM

Find the measured IC50 of "CCN(C)c1ccc(CNC(=O)[C@H]2CN(c3nc4nc(Cl)ncc4s3)CCN2S(=O)(=O)c2ccc(OC(F)(F)F)cc2)cc1" and report it.
< 100 nM

Find the measured IC50 of "O=C(O)c1cccc2ncc(N3CCN(S(=O)(=O)c4ccc(OC(F)(F)F)cc4)[C@@H](C(=O)NCc4ccc(OC(F)(F)F)cc4)C3)nc12" and report it.
< 100 nM

Find the measured IC50 of "CC(=O)N1CCN(S(=O)(=O)c2ccc(OC(F)(F)F)cc2)[C@@H](C(=O)NCc2ccc(CCCO)cc2)C1" and report it.
> 1000 nM

Find the measured IC50 of "CN(CC(=O)O)c1ccc(S(=O)(=O)N2CCN(c3cnc4cnccc4n3)C[C@@H]2C(=O)NCc2ccc(OC(F)(F)F)cc2)cc1" and report it.
< 100 nM

Find the measured IC50 of "O=C(NCc1ccc(OC(F)(F)F)cc1)[C@H]1CN(c2nc3nc(C4CC4)ncc3s2)CCN1S(=O)(=O)c1ccc(C(F)(F)F)cc1" and report it.
< 100 nM

Find the measured IC50 of "CCCc1ccc(CNC(=O)[C@H]2CN(c3cc(C)n(CC(=O)O)n3)CCN2S(=O)(=O)c2ccc(OC(F)(F)F)cc2)cc1" and report it.
100 to 1000 nM

Find the measured IC50 of "CCC(F)(F)c1ccc(CNC(=O)[C@H]2CN(c3cnc4[nH]cnc4n3)CCN2S(=O)(=O)c2ccc(OC(F)(F)F)cc2)cc1" and report it.
< 100 nM

Find the measured IC50 of "CCOC(=O)c1ncc2sc(N3CCN(S(=O)(=O)c4ccc(OC(F)(F)F)cc4)[C@@H](C(=O)NCc4ccc(OC(F)(F)F)cc4)C3)nc2n1" and report it.
< 100 nM
